test system: Voltage-dependent L-type calcium channel subunit alpha-1D (CaV1.3) ICDI/IQ interaction; assay: Disruptors of the CACNA1D IQ motif to Ca2+-dependent inactivation inhibitor domain association, primary screening, Förster resonance energy transfer in intact living cells, one concentration (AID 743397); conditions: HEK cells, CFP/YFP FRET ICDI-IQ, plate reader, 10 min; at 12.3 µM; hits give high values; percent FRET-ratio fall versus neutral wells;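 also: 0% = median of the neutral control wells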
Screen size: about 340,000 compounds; about 330 (0.097%) were called active. This is one part of a sample in which actives are shown more often than they occur.
ASSAY_READOUT: inhibition (%)

> print(dat)
                                    molecule  data.value
 1  O=S(=O)(c1cccs1)N1CCCc2nc(-c3ccc(Br)cc3)ccc21       -8.65
 2  O=[N+]([O-])c1cccc(Nc2c3ccccc3nc3ccccc23)c1        87.1
 3  CC(=O)C1=C(C)N(Cc2ccccc2)C(=S)NC1c1cccc(Br)c1 (stereo not given)       -5.09
 4    CCCCc1c(-c2ccc(Cl)cc2)ncn1CCc1ccccc1OC       -10.1
 5  Nc1[nH]c(C(=O)c2ccc(Br)cc2)c(-c2ccc3c(c2)OCO3)c1C(=O)NCCc1c[nH]c2ccccc12       -16.2
 6     CC(C)CNc1cccc2c1S(=O)(=O)N[C@H](C)CO2       -7.79
 7    C=CC1=CCN(S(=O)(=O)C(C)(C)C)[C@@H]1CCO       -4.63
 8  CC1CCCN(c2cccc3c2S(=O)(=O)N(Cc2ccc(F)cc2)[C@@H](C)[C@H](c2ccccc2)O3)C1 (stereo not given in full)        -4.9
 9  COC(=O)C1=C(C)N(Cc2ccccc2C(F)(F)F)C(=NCc2ccc(C(F)(F)F)cc2)NC1c1ccc(F)cc1 (stereo not given)        -9.8
10  Cc1cc(Br)cn2c(Cc3ccccc3C(F)(F)F)c(-c3ccc(C#N)cc3)nc12         -10

###

tested on: Voltage-dependent L-type calcium channel subunit alpha-1D (CaV1.3) ICDI/IQ interaction; test: Disruptors of the CACNA1D IQ motif to Ca2+-dependent inactivation inhibitor domain association, primary screening, Förster resonance energy transfer in intact living cells, one concentration (AID 743397); details: HEK cells, CFP/YFP FRET ICDI-IQ, plate reader, 10 min; at 12.3 µM; percent FRET-ratio fall versus neutral wells;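 also: 0% = median of the neutral control wells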
About 330 (0.097%) of roughly 340,000 compounds were called active.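 Rule for the calls: active = mean replicate inhibition of at least 30% and at least 1% of replicates passing that level; inconclusive = only one of the two criteria is met; inactive = neither criterion is met.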 The sample holds actives, similar compounds and a random draw of the others, so the mix is not that of the screen.
Outcome codes: active, inactive

> print(dat)
                                    compound                             system.tested  category.label
 1  CCCCOCC1CN(CCCC)S(=O)(=O)c2c(Oc3ccc(F)cc3)cccc2O1 (stereo not given)  Voltage-dependent L-type calcium channel subunit alpha-1D (CaV1.3) ICDI/IQ interaction        inactive
 2  CCn1c(=N)c(C(=O)NCCCOC)cc2c(=O)n3cccc(C)c3nc21  Voltage-dependent L-type calcium channel subunit alpha-1D (CaV1.3) ICDI/IQ interaction          active
 3               O=C1Nc2ccccc2C1=NN=Cc1ccco1  Voltage-dependent L-type calcium channel subunit alpha-1D (CaV1.3) ICDI/IQ interaction        inactive
 4  COC(=O)C1=C(C(=O)OC)C2C=C(C(C)C)C1C(=O)C2(C)O (stereo not given)  Voltage-dependent L-type calcium channel subunit alpha-1D (CaV1.3) ICDI/IQ interaction        inactive
 5  Clc1cccc2c1C1CC2CCN1Cc1ccccc1 (stereo not given)  Voltage-dependent L-type calcium channel subunit alpha-1D (CaV1.3) ICDI/IQ interaction        inactive
 6  COC(=O)C1=C(C)N(Cc2ccc(C(F)(F)F)cc2)C(=NCc2ccc(C(F)(F)F)cc2)NC1c1cccc(Cl)c1 (stereo not given)  Voltage-dependent L-type calcium channel subunit alpha-1D (CaV1.3) ICDI/IQ interaction        inactive
 7  COC(=O)[C@]12C[C@H](CC(=O)NCc3ccc(OC)c(OC)c3)C(=O)N(Cc3ccccc3)C1=C[C@H](C(C)C)O[C@@H]2C1CC1  Voltage-dependent L-type calcium channel subunit alpha-1D (CaV1.3) ICDI/IQ interaction        inactive
 8  COC(=O)Cc1nnn2c1[C@H](C)[C@H](c1ccccc1Br)OCC2  Voltage-dependent L-type calcium channel subunit alpha-1D (CaV1.3) ICDI/IQ interaction        inactive
 9  COc1ccccc1Cc1c(-c2ccc(F)cc2)nc2ccc(C)cn12  Voltage-dependent L-type calcium channel subunit alpha-1D (CaV1.3) ICDI/IQ interaction        inactive
10  CCCCOCCCNC(=O)C[C@@H]1C[C@@]2(C(=O)OC)CCCCC=C2N(CCC2=CCCCC2)C1=O  Voltage-dependent L-type calcium channel subunit alpha-1D (CaV1.3) ICDI/IQ interaction        inactive

###

system: Voltage-dependent L-type calcium channel subunit alpha-1D (CaV1.3) ICDI/IQ interaction; experiment: Disruptors of the CACNA1D IQ motif to Ca2+-dependent inactivation inhibitor domain association, primary screening, Förster resonance energy transfer in intact living cells, one concentration (AID 743397); details: HEK cells, CFP/YFP FRET ICDI-IQ, plate reader, 10 min; at 12.3 µM; hits give high values; percent FRET-ratio fall versus neutral wells;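 also: 0% = median of the neutral control wells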
In all, about 340,000 compounds went through this assay and about 330 (0.097%) were called active. This excerpt belongs to a sample that is enriched for actives.
ASSAY_READOUT: inhibition

> print(dat)
                                   compound         data.value
1   C=CCN1C(=O)N(Cc2ccccc2)c2ccccc2S1(=O)=O  -4.73% (inactive)
2  OC(c1ccccc1)(c1ccccc1)C1CCN(CCCOc2ccc(-c3ccsc3)cc2)CC1  -9.67% (inactive)
3  CCCN1C(=O)c2[nH]nc(-c3ccccc3)c2C1c1ccccc1 (stereo not given)  -3.81% (inactive)
4    CCCCc1c(-c2ccc(Br)cc2)ncn1CCc1ccccc1OC  -9.97% (inactive)
5  COCCNC(=S)N(C)[C@H]1C[C@H]2c3[nH]c4ccccc4c3CCN2C[C@H]1[C@H](C)O  -5.06% (inactive)

###

test system: Voltage-dependent L-type calcium channel subunit alpha-1D (CaV1.3) ICDI/IQ interaction; experiment: Disruptors of the CACNA1D IQ motif to Ca2+-dependent inactivation inhibitor domain association, primary screening, Förster resonance energy transfer in intact living cells, one concentration (AID 743397); settings: HEK cells, CFP/YFP FRET ICDI-IQ, plate reader, 10 min; at 12.3 µM; percent FRET-ratio fall versus neutral wells;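 also: 0% = median of the neutral control wells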
Out of some 340,000 compounds screened, about 330 (0.097%) were called active.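 Rule for the calls: active = mean replicate inhibition of at least 30% and at least 1% of replicates passing that level; inconclusive = only one of the two criteria is met; inactive = neither criterion is met.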 Only a selection was taken, and actives are over-represented in it overall.
Outcome codes: class 1 for active, class 0 for inactive

> print(dat)
                                    molecule  category.label
 1  COC(=O)[C@]12C[C@H](CC(=O)NCCC(C)C)C(=O)N(CCc3ccc(OC)c(OC)c3)C1=C[C@H](C(C)(C)C)O[C@@H]2C         class 0
 2  O=C(N[C@H](C(=O)N1CCC[C@H]1C(=O)NCCc1ccccc1Cl)c1ccccc1)c1ccccc1         class 0
 3  CC[C@H](C)[C@H]1CNC(=O)C(=O)N1CC1CCN(CCc2ccc(OC)c(OC)c2)CC1         class 0
 4  O=C(NCc1ccccc1)[C@@H]1CCCN1C(=O)[C@H]1CCCN1C(=O)c1cccc(Cl)c1         class 0
 5       CC(=NNC(N)=O)c1ccc(Cl)c(-n2cccc2)c1         class 0
 6  CCOc1ccc(C2C3=C(CCCC3=O)N(CC(=O)O)C3=C2C(=O)CCC3)cc1         class 0
 7  O=C(Nc1c(Cl)c(C2CC2)nn1-c1ccccc1)C(Cl)(Cl)Cl         class 0
 8  COCCCNC(=O)C[C@H]1C[C@@]2(C(=O)OC)C(=C[C@H](C(C)(C)C)O[C@@H]2C)N(Cc2ccc3c(c2)OCO3)C1=O         class 0
 9      O=C(Nc1cccc([N+](=O)[O-])c1)Nn1cnnc1         class 0
10  COc1ccc(C2CC(c3cccs3)=NN2C(=O)CSc2nnc(N)s2)cc1OC (centres undefined)         class 0
11  Cc1ccc2nc(-c3ccc(CN4CCC(n5cc(-c6ccccc6)[nH]c5=O)CC4)cc3)c(-c3ccccc3)nc2c1         class 0
12  CCOC(=O)Cn1c2c(n(-c3ccc(F)cc3)c1=O)C=C(c1ccccc1)[C@@H](C)C(C(=O)N(C)C1CCCCC1)=C2         class 0
13     CCCCCn1c(=O)c(C(=O)OCC)c(Cl)c2ccccc21         class 0
14  O=C(NCc1ccccc1)[C@@H]1CCCN1C(=O)[C@@H](NS(=O)(=O)c1ccc(F)cc1F)C1CCCCC1         class 0
15  COc1ccc(SSc2ccc(OC)cc2C(=O)O)c(C(=O)O)c1         class 0
16      O=C(NNC(=O)c1ccc(Cl)nc1)c1ccc(Br)cc1         class 0
17  C[C@H](O)[C@@H]1C(=O)N2CCc3c([nH]c4c(-c5ccc6c(c5)OCO6)cccc34)[C@@H]2C[C@@H]1N(C)C(=O)c1ccco1         class 0
18  COC(=O)C1=C(C)N(Cc2ccc(F)cc2)C(=S)NC1c1cccc(Cl)c1 (centres undefined)         class 0
19             CN(C)CCOCCOc1ccc(Cl)c2ccccc12         class 1
20                CN1CCCc2nc(-c3ccccc3)ccc21         class 0
21  CC(C)(C)n1nc(C2CC2)c(Br)c1NC(=O)c1ccccc1F         class 0
22      N#Cc1cccc(Nc2c3c(nc4ccccc24)CCCC3)c1         class 0
23  N#Cc1ccc(OCCCN2CCC(C(O)(c3ccccc3)c3ccccc3)CC2)c(F)c1         class 0
24             CNC(=S)NNC(=O)c1ccc(N(C)C)cc1         class 0
25       Cc1cccc(/C(N)=N/OC(=O)c2ccccc2Cl)c1         class 0
26  COc1ccc(C2CC(c3cccs3)=NN2c2nc(C)c(C(C)=O)s2)cc1OC (centres undefined)         class 1
27      CCCCNc1cccc2c1S(=O)(=O)N[C@@H](C)CO2         class 0
28  COC(=O)[C@]12C[C@H](CC(=O)NCc3ccccc3)C(=O)N(CCC3=CCCCC3)C1=C[C@H](C(C)(C)C)O[C@@H]2C         class 0
29  CC(=O)c1ccc(S(=O)(=O)NCC2CCN(C(=O)C(=O)c3cccs3)CC2)cc1         class 0
30  O=c1[nH]c(-c2ccccc2)cn1C1CCN(Cc2ccc(-c3nc4ccc(F)cc4nc3-c3ccccc3)cc2)CC1         class 0
31  O=C1[C@@H](c2ccccc2)[C@@H](c2ccccc2)N1c1ccccc1         class 0
32  COc1ccc(C2CC(c3cccs3)=NN2C(=O)CSc2nncs2)cc1OC (centres undefined)         class 0
33  Cc1cc(OC(=O)c2ccccc2Cl)ccc1N1C(=O)CCC1=O         class 1
34  CCCCCCCCN1C(=O)[C@@H](CC(=O)NCCCC)C[C@@]2(C(=O)OC)C1=C[C@H](C(C)(C)C)O[C@@H]2C         class 0
35  CCOC(=O)c1ccc(-c2ccc3ncnc(N(C)Cc4sccc4C)c3c2)o1         class 0
36  COC(=O)C1=C(C)N(Cc2ccc(C(F)(F)F)cc2)C(=NCc2ccccc2)NC1c1ccccc1C(F)(F)F (centres undefined)         class 0
37  Nc1ncnc2c1ncn2[C@@H]1O[C@H](C(=O)N[C@@H](CCc2ccccc2)C(=O)NCC(=O)N2CCOCC2)[C@@H](O)[C@H]1O         class 0
38  CCCCCCCCN1C(=O)[C@@H](CC(=O)NCc2ccccc2)C[C@@]2(C(=O)OC)C1=C[C@H](C(C)(C)C)O[C@@H]2C         class 0
39       CCCn1c(=O)c(-c2ccccc2)c(O)c2ccccc21         class 0
